molecular target: Mu-type opioid receptor (Homo sapiens, UniProt P35372); test: Agonist activity at human MOR expressed in CHOK1 cells assessed as […] of cAMP accumulation incubated for 45 mins by HTRF assay
Sequence (P35372 whole entry): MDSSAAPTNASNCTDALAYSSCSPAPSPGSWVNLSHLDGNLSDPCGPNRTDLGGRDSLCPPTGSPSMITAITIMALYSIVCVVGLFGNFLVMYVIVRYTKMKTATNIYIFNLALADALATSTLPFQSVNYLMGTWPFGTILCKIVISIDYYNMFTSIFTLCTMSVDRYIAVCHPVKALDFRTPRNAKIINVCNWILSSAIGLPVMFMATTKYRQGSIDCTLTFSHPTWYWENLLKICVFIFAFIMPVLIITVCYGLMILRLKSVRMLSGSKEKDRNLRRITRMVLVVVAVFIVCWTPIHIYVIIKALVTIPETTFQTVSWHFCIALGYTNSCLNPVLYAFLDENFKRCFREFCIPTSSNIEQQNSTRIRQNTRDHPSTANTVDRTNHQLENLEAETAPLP
Please provide measured EC50 for the entries that follow.
Numeric answer only, unit µM assumed.

Query: EC50; subject: CC1OC2(CCN(CCc3ccccc3)CC2)CN(c2ccccc2F)C1=O (stereo not drawn)
0.004

Query: EC50; subject: C[C@H]1OC2(CCN(CCc3ccccc3F)CC2)CN(c2ncccc2C(F)(F)F)C1=O
0.065

Query: EC50; subject: CC(=O)Nc1cccc(CCN2CCC3(CC2)CN(c2ccccc2)C(=O)C(C)O3)c1 (racemic)
0.343
